Assignment: determine reported Papp B→A for the given molecules.
- test: Apparent permeability of the compound from basolateral to apical side in human Caco2 cell membrane
- Type: ADME, cell-based
- measurement_conditions: Caco-2
One number for each entry, in ×10⁻⁶ cm/s.

structure_as_smiles	Papp B→A (×10⁻⁶ cm/s)
COc1cccc(-c2nc3ccc(-c4cc(CN(C)C)ccc4F)cc3c(=O)n2CC(=O)NC(C)C)c1	23.3

Task item: What does the record list as Papp B→A for `COc1cc(-c2nc3ccc(-c4cccc(CN(C)C)c4)cc3c(=O)n2CC(=O)NC(C)C)ccc1F` ?
Reply: 9.1

---

- test: AUC (infinity) in Wistar rat at 1 mg/kg, iv
- Type: ADME, organism-based
- Parameters: time infinity, dose 1 mg/kg, route intravenous
- measurement_conditions: plasma
result_type: AUC(0-inf) (ng·h/mL)
One number for each entry, in ng·h/mL.

Task item: What does the record list as AUC(0-inf) for `COc1cc(-c2nc3ccc(-c4cccc(CN(C)C)c4)cc3c(=O)n2CC(=O)NC(C)C)ccc1F` ?
Reply: 441

---

- test: Intrinsic clearance in human liver microsomes
result_type: microsomal CLint (µL/min/mg)
Give bare numbers, in µL/min/mg.

Each molecule below has a reported value. Please supply its microsomal CLint.
1. COc1cccc(-c2nc3ccc(-c4cccc(CN(C)C)c4)cc3c(=O)n2CC(=O)NC(C)C)c1
2. COc1cccc(-c2nc3ccc(-c4cc(CN(C)C)ccc4F)cc3c(=O)n2CC(=O)NC(C)C)c1

Reply:
45
58

---

- test: Oral bioavailability in Wistar rat at 5 mg/kg, po
- Type: ADME, organism-based
- measurement_conditions: in vivo
result_type: bioavailability
Give the value; after it, write the unit.

Task item: Item under review: `COc1cc(-c2nc3ccc(-c4cccc(CN(C)C)c4)cc3c(=O)n2CC(=O)NC(C)C)ccc1F` . Reported bioavailability?
Reply: 45%

---

- tgt: Vasopressin V1b receptor (Homo sapiens, UniProt P47901)
- Sequence (P47901 whole entry): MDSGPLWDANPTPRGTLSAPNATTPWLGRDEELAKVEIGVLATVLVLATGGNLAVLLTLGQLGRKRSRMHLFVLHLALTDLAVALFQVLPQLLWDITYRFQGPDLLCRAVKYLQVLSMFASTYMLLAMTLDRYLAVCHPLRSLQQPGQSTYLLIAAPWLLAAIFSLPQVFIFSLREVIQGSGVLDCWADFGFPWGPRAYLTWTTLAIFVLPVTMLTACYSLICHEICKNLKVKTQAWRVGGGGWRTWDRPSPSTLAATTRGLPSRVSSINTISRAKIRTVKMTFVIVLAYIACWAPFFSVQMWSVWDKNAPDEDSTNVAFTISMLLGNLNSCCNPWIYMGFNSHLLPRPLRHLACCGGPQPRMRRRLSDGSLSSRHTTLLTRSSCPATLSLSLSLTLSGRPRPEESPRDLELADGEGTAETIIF
- test: Displacement of [3H]AVP from human vasopressin V1b receptor expressed in CHO cells co-expressing VIP-luciferase by scintillation counting-based whole cell binding assay
Kindly state pIC50 for each of the entries shown.
One number for each entry, as −log10 of the molar value.

Solved entries:
structure_as_smiles	pIC50
O=C(Cn1c(-c2ccccc2)nc2ccc(-c3cccc(CN4CCOCC4)c3)cc2c1=O)NCC1CC1	7.10
CC(C)CNC(=O)Cn1c(-c2ccccc2)nc2ccc(-c3cccc(CN4CCC4)c3)cc2c1=O	5.98
COc1cccc(-c2nc3ccc(-c4cccc(CN5CCC5)c4)cc3c(=O)n2CC(=O)NC(C)C)c1	7.34
CN(C)Cc1cccc(-c2ccc3nc(-c4ccccc4)n(CC(=O)NCC4CC4)c(=O)c3c2)c1	6.50
CC(C)NC(=O)Cn1c(-c2cccc(Cl)c2)nc2ccc(-c3cccc(CN(C)C)c3)cc2c1=O	7.72
O=C(Cn1c(-c2ccccc2)nc2ccc(-c3cccc(CN4CCC4)c3)cc2c1=O)NCC1CC1	6.56
CC(C)(C)NC(=O)Cn1c(-c2ccccc2)nc2ccc(-c3cccc(CN4CCC4)c3)cc2c1=O	6.73
CC(C)NC(=O)Cn1c(-c2cccc(Cl)c2)nc2ccc(-c3cccc(CN4CCCCC4)c3)cc2c1=O	8.05

Count: 6. Required value per item: pIC50.
1. O=C(Cn1c(-c2ccccc2)nc2ccc(-c3cccc(CN4CCC4)c3)cc2c1=O)NC1CC1
2. COc1cc(-c2nc3ccc(-c4cccc(CN(C)C)c4)cc3c(=O)n2CC(=O)NC(C)C)ccc1F
3. CCN(CC)Cc1cccc(-c2ccc3nc(-c4ccccc4)n(CC(=O)NCC4CC4)c(=O)c3c2)c1
4. COc1cccc(-c2nc3ccc(-c4ccc(CN(C)C)o4)cc3c(=O)n2CC(=O)NC(C)C)c1
5. O=C(Cn1c(-c2ccccc2)nc2ccc(-c3cccc(CN4CCCC4)c3)cc2c1=O)NCC1CC1
6. COc1cccc(-c2nc3ccc(-c4cncc(CN(C)C)c4)cc3c(=O)n2CC(=O)NC(C)C)c1

Reply:
5.59
9.00
6.27
6.15
6.41
7.11

Quick batch: pIC50 for everything below.
1. O=C(Cn1c(-c2ccccc2)nc2ccc(-c3cccc(CN4CCC4)c3)cc2c1=O)NC1CCCC1
2. COc1cccc(-c2nc3ccc(-c4cc(CN(C)C)ccc4F)cc3c(=O)n2CC(=O)NC(C)C)c1

Reply:
1. 6.62
2. 8.15

Hey, quick one: what's pIC50 for each of these?
1. CC(C)NC(=O)Cn1c(-c2cccc(Cl)c2)nc2ccc(-c3cccc(CN4CCC4)c3)cc2c1=O
2. COc1ccccc1-c1nc2ccc(-c3cccc(CN4CCC4)c3)cc2c(=O)n1CC(=O)NC(C)C

Reply:
1: 7.22; 2: 6.21

For every listed record, write down its pIC50.
1. CNCc1cccc(-c2ccc3nc(-c4ccccc4)n(CC(=O)NCC4CC4)c(=O)c3c2)c1
2. COc1cccc(-c2nc3ccc(-c4cc(CN(C)C)ccn4)cc3c(=O)n2CC(=O)NC(C)C)c1

Reply:
1: 6.49; 2: 7.28

Provide each entry's pIC50 from the list below.
1. CCCNC(=O)Cn1c(-c2ccccc2)nc2ccc(-c3cccc(CN4CCC4)c3)cc2c1=O
2. CC(C)NC(=O)Cn1c(-c2ccccc2)nc2ccc(-c3cccc(CN4CCC4)c3)cc2c1=O
3. COc1cccc(-c2nc3ccc(-c4cccc(CN(C)C)c4)cc3c(=O)n2CC(=O)NC(C)C)c1
4. COc1cccc(-c2nc3ccc(-c4cccc(CN(C)C)n4)cc3c(=O)n2CC(=O)NC(C)C)c1
5. COc1cccc(-c2nc3ccc(-c4cccc(CN5CCCCC5)c4)cc3c(=O)n2CC(=O)NC(C)C)c1
6. COCCNCc1cccc(-c2ccc3nc(-c4ccccc4)n(CC(=O)NCC4CC4)c(=O)c3c2)c1
7. NCc1cccc(-c2ccc3nc(-c4ccccc4)n(CC(=O)NCC4CC4)c(=O)c3c2)c1
8. O=C(Cn1c(-c2ccccc2)nc2ccc(-c3cccc(CN4CCCCC4)c3)cc2c1=O)NCC1CC1

Reply:
1: 5.63; 2: 6.40; 3: 8.05; 4: 7.43; 5: 8.70; 6: 6.19; 7: 5.92; 8: 7.22

Task item: Name the reported pIC50 value associated with the compound `COc1cccc(-c2nc3ccc(-c4ccc(CN(C)C)s4)cc3c(=O)n2CC(=O)NC(C)C)c1`
Reply: 6.30
